Molecular target: T1, recombinant VEGFR-2 protein (water soluble extracellular site of human VEGFR-2 with Fc of human IgG1 connected thereto, R&D Systems) (human), P35968
T1 chain: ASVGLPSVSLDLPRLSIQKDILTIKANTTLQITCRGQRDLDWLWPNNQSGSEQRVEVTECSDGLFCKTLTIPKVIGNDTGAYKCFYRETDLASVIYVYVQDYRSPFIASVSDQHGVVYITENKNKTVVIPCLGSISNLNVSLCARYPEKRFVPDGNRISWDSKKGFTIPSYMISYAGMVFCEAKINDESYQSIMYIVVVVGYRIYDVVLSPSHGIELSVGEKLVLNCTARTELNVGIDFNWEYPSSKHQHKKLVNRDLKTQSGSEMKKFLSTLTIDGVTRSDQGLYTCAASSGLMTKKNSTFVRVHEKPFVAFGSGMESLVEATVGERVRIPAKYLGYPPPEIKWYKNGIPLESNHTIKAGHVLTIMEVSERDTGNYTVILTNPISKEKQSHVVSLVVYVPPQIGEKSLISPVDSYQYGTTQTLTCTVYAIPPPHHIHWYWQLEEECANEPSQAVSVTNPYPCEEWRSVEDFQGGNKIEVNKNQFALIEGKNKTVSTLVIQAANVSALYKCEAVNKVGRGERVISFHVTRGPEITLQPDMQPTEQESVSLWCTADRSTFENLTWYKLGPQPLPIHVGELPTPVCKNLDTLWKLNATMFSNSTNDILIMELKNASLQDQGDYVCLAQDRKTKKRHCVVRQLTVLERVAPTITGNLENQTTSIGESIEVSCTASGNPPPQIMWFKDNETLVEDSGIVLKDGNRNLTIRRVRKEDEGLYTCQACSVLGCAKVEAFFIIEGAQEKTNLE
Assay: competitive ELISA; peptide titrated with 1 nM VEGFR-2 on coated VEGF 165
measuredParameter: IC50 (nM)

1. EAGAYWCKAWGLSPCLVT (modifications not checked) [DTN9VEGFR-2-3]    61.9
2. PGSQGYCHLNMRYQWICDSE (modifications not checked) [DTN11VEGFR-2-5]    50.7
3. TGSGRMCDGSGPPTNCWFT (modifications not checked) [DTN10VEGFR-2-4]    46.9
4. EAGKETCGYEWQYCPRP (modifications not checked) [DTN8VEGFR-2-2]    49.5
5. TGSDDLCYTFPCMHY (modifications not checked) [DTN6VEGFR-2-1]    56.7

Every entry's value here was drawn from patent US20110076723A1.
